# assayInfo: Toxicity liver stage against HepG2, at 10uM
# Assay type: cell-based
# Design: test concentration 10 uM, cell line HepG2-A16-CD81EGFP
# experimentalContext: human, HepG2-A16-CD81EGFP cells; read-out: INHIBITION

molecule | cytotoxicity at 10 µM (%)
CCCc1ccc(OC23CCCN(CC2)C3)c(OC)c1 (configuration not stated) | -17.3
CN(c1cccnc1N1CCCC1)S(=O)(=O)c1cccs1 | 20.4
CN(C)C(=O)N1C[C@@H]2COC[C@]2(c2nnc(C3CC3)o2)C1 | -4.05
CC(C)Nc1ccnc(N2Cc3cnc(C(C)(C)C)nc3C2)n1 | 8.33
Cc1cc(C(C)(O)CNC(=O)C2(C)CCCC2)c(C)o1 (configuration not stated) | -4.88
O=C(c1ccc(=O)[nH]c1)N1CCC(Oc2cccc(C(F)(F)F)c2)CC1 | 2.26
COCC1CN(c2ccncn2)Cc2cnn(CC3CCCC3)c21 (configuration not stated) | 4.83
N#Cc1cccc(C(=O)N2CC[C@H]3[C@H]2CCN3CC2CC2)c1 | 3.03
O=C(c1cccnc1)N(CCO)Cc1cc(Br)ccc1F | 12.7
COC(=O)c1ccc(C2SCC(=O)Nc3c2cnn3C2CCCC2)cc1 (configuration not stated) | 1.9
Cc1ccc(-c2cc(CNC(=O)N3CCC(N(C)C)CC3)on2)cc1 | -10.8
O=C(Cc1ccccn1)N1CCCC(c2nccn2CC2CCC2)C1 (configuration not stated) | -2.11
Cn1nnc2cc(C(=O)NS(=O)(=O)Cc3ccc(F)cc3)ccc21 | -3.7
Cc1nc(CN2CCN(C(=O)NC(C)Cn3ccnc3)CC2)cs1 (configuration not stated) | -5.28
COCc1ccc(C(=O)N2CCN(CC(C)O)CC2)cc1 (configuration not stated) | 0.0264
O=C(Nc1cccnc1)C1=Cc2ccccc2OC1 | 4.19
O=C(Cn1cc(-n2cccc2)cn1)NCC(F)(F)F | 16
O=C(O)CCc1cc2n(n1)CCCN(C(=O)c1ccc3cc[nH]c3c1)C2 | -13.3
Cc1ccc(N2CCO[C@H]3CN(Cc4ccc(F)cc4)C[C@H]32)nn1 | -88.6
CC(=O)NCc1nccnc1C1CCN(C(=O)c2cc[nH]n2)CC1 | -6.74
CCCn1cnc(S(=O)(=O)Nc2cccnc2-n2cccn2)c1 | 15.4
O=C(Nc1cccc(F)c1)C1CCN(Cc2noc(C3CC3)n2)CC1 | 13.2
COCCOCC(=O)Nc1cc(C)ccc1F | 3.91
Cc1ccc(OCc2occc2C(=O)N2C[C@@H]3C(CN(C)C)[C@@H]3C2)cc1 (some centres not stated) | -1
CN1CCN(c2ccc(F)cc2NC(=O)NCCn2ccnc2)CC1 | 1.69
O=C(NCc1cccs1)c1nc2c(o1)CN(CC1CC1)C2 | -2.83
COc1ccc(CNC[C@H]2COCc3nc4cc(F)ccc4n32)cc1 | 1.52
Cn1cc(-c2cnc(N3CCOCC3)nc2)cc1C(=O)N1CCOCC1 | 9.8
Cn1ccnc1CN1CCN2C[C@H](Oc3cccc(F)c3)C[C@H]2C1 | 13.6
COc1ccccc1N1CCC(CNCc2c(C)nn(C)c2OC)C1 (configuration not stated) | 5.28
C[C@@H](O)CNC(=O)c1nc(CC(=O)Nc2ccccc2)no1 | 7.49
CN(C)C(=O)CC1CC2(CCN(c3ncccn3)CC2)c2ccccc21 (configuration not stated) | -16.7
COCc1noc(Cn2ccc3ccccc3c2=O)n1 | 0.761
CCc1noc(C(C)N(C)CC(=O)Nc2ccc(Br)cc2C)n1 (configuration not stated) | 19.6
Cn1c(-c2ccccc2Cl)nc2cc(C(=O)NCC3(CO)CC3)cnc21 | -4.33
O=C(CCCn1cncn1)NC1(c2ccccc2)CCC1 | -11.5
CCS(=O)(=O)NCCN1CCc2ccc(F)cc2C1C (configuration not stated) | 6.88
CC(=O)N1CCC(Nc2cccc(OC(F)F)c2C)CC1 | -15.1
Cc1ccc(C(=O)N2CCCC(N)CC2)cc1N1CCNC1=O (configuration not stated) | -4.35
CC(=O)N(C)CC(=O)NCC1(c2cccc(C)c2)CCCC1 | -2.37
Cc1cc(C)c2c(N3CCC(C(=O)N4CCOCC4)CC3)ncnc2n1 | -11.1
O=S(=O)(NC(CO)Cc1c[nH]c2ccccc12)c1cncc(F)c1 (configuration not stated) | 12
CCn1nccc1C(=O)Nc1nc(C)c(C(C)=O)s1 | 1.28
CC(C(=O)N1CCN(c2ncccn2)CC1)n1cncn1 (configuration not stated) | -1.24
CCS(=O)(=O)CCSc1ccc(Cl)cc1 | -1.13
CC(C)c1cc(NC2CCCN(C(=O)c3cccs3)C2)ncn1 (configuration not stated) | -7.55
CC1(C)CN=C(N2CCN(CCCN3CCOCC3)CC2)S1 | -17.6

---

Listed next: entries and their corresponding cytotoxicity at 10 µM.
# assayInfo: Toxicity liver stage against HepG2, at 10uM
# Assay type: cell-based
# Design: test concentration 10 uM, cell line HepG2-A16-CD81EGFP
# experimentalContext: human, HepG2-A16-CD81EGFP cells; read-out: INHIBITION

compound | unitsLabel | cytotoxicity at 10 µM
Cc1cc(=O)[nH]c(SC(C)C(=O)N2CCCN(C3CCCC3)CC2)n1 (stereo unspecified) | % | -8.04
COCC(=O)N1CCCN(Cc2cc(O)c3ccccc3n2)CC1 | % | 4.02
O=C(Cc1ccccc1F)N1CCN(C(=O)c2ccoc2)CC1 | % | 1.16
CO[C@H]1CN(C(=O)c2cn3cc(C)ccc3n2)CC[C@@]12CCCO2 | % | 3.6
CC(C)N1CCN(C(=O)Nc2cnn(CC(N)=O)c2)CC1 | % | -12.2
COC(=O)N1CCN(C(=O)c2ccc(C)c(N3CCNC3=O)c2)CC1 | % | 3.76

---

# assayInfo: Toxicity liver stage against HepG2, at 10uM
# Format: cell-based
# Parameters: test concentration 10 uM, cell line HepG2-A16-CD81EGFP
# experimentalContext: human, HepG2-A16-CD81EGFP cells; read-out: INHIBITION
measure: cytotoxicity at 10 µM (%)

compound | measure | value
CN(C)c1cc(C(=O)N2CCN(c3nccs3)CC2)ccn1 | cytotoxicity at 10 µM | -10.8
CC(=O)N1CCCN(C(=O)NCCc2cc(Cl)cc(Cl)c2)CC1 | cytotoxicity at 10 µM | 4.55
Cc1cc(C)n(CC(C)NC(=O)c2cc(CN3CCC(O)CC3)on2)n1 (centres undefined) | cytotoxicity at 10 µM | 0.873
CN(C)C(=O)N1CCC2(C1)CN(c1cccnc1)C(=O)CN2C (centres undefined) | cytotoxicity at 10 µM | 6.96
Cc1nnc(N2CCCC3(CN(Cc4nccs4)CCO3)C2)o1 (centres undefined) | cytotoxicity at 10 µM | 2.08
c1cc(N2CCCC2c2cnccn2)ncn1 (centres undefined) | cytotoxicity at 10 µM | -22.4
COC1(CNC(=O)c2ccc(Cl)c(Cl)c2)CCSC1 (centres undefined) | cytotoxicity at 10 µM | 2.05
COc1ccc(C(=O)C2CCCN(Cc3ccncc3)C2)c(OC)c1 (centres undefined) | cytotoxicity at 10 µM | -15.7
CC(=O)N1CCN(CCOc2ccc(F)cc2)CC(C(N)=O)C1 (centres undefined) | cytotoxicity at 10 µM | -38.9
Cc1cnc(N2CC[C@H]3[C@@H]2CCC(=O)N3c2ccccc2)nc1 | cytotoxicity at 10 µM | 4.15
CN1CC(=O)N(c2cccc(F)c2)CC12CCNC2 (centres undefined) | cytotoxicity at 10 µM | 6.23
CC(=O)NCC(=O)N1CCC2(CC1)CN(c1cccnc1)C(=O)CO2 | cytotoxicity at 10 µM | 3.76
Cc1ccc(-c2nc(C3CCN(C(=O)c4ccn(C)n4)CC3)no2)cn1 | cytotoxicity at 10 µM | -2.81
Cc1ccccc1C(CC(=O)N1CCc2sccc2C1)NC(N)=O (centres undefined) | cytotoxicity at 10 µM | 0.0773
COc1c[nH]c(C(=O)N2CCN(c3ccc(Cl)cc3)CC2)cc1=O | cytotoxicity at 10 µM | 4.42
CC(C)c1nc(CNC(=O)c2ccc(C(C)N3CCCCC3)o2)cs1 (centres undefined) | cytotoxicity at 10 µM | -9.93
CNC(=O)CNCc1c[nH]nc1-c1cc2ccccc2o1 | cytotoxicity at 10 µM | 6.7
COc1cccc2c(=O)n(Cc3cccnc3)cnc12 | cytotoxicity at 10 µM | -7.85
CCN(CC)CCCN1CCC(NC(=O)OC(C)(C)C)CC1 | cytotoxicity at 10 µM | 5
CC1(C(=O)NCc2cccc(C(F)(F)F)c2)CCOCC1 | cytotoxicity at 10 µM | 7.63
Cn1nc(CN2CCCCC2)c2c1CN(C(=O)c1cccc(C#N)c1)C2 | cytotoxicity at 10 µM | -2.21
Oc1nc(N2CCOCC2)nc2c1CCN(Cc1cccnc1)CC2 | cytotoxicity at 10 µM | -3.71
O=C1OCCN1CCCN1CCCC1c1ccc(O)cc1 (centres undefined) | cytotoxicity at 10 µM | -6.3
Cc1noc(CNC(=O)[C@@H](C)NC(=O)OC(C)(C)C)n1 | cytotoxicity at 10 µM | 4.91
